Target: Histone deacetylase 1 (Homo sapiens, UniProt Q13547)
Sequence (Q13547 whole entry): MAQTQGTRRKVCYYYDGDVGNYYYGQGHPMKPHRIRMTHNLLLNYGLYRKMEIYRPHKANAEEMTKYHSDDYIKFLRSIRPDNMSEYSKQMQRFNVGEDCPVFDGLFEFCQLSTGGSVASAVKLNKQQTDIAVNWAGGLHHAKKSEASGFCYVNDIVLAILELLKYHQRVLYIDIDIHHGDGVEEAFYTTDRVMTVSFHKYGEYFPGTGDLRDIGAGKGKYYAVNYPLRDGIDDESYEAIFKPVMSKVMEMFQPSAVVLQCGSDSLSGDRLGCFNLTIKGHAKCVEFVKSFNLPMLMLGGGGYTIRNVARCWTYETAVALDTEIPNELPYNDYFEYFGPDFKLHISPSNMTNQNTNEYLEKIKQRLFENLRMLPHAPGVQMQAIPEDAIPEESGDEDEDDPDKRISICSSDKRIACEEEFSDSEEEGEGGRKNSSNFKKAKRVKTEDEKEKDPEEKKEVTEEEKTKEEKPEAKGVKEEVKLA
Test: Inhibition of HDAC1 (unknown origin)
Measured Property: IC50 (nM)

C[C@H]1CN(Cc2ccc(C(=O)NO)cc2)C[C@@H]1c1nc2c(cnn2C2CCCC2)c(=O)[nH]1    593
C[C@@H](c1nc2c(cnn2C2CCCC2)c(=O)[nH]1)N1CC(Cc2ccc(C(=O)Nc3ccccc3N)cc2)C1    99

I: O=C(CCCCNC(=S)Nc1ccc(/C=C/C(=O)c2cccnc2)cc1)NO
II: O=C(CCCCCCN1CC(c2ccc3ncnc(Nc4ccc(Br)cc4F)c3c2)N=N1)NO (stereo not drawn)
III: COc1cccc2c1C(=O)c1c(O)c3c(c(O)c1C2=O)C[C@@](O)(C(C)=O)C[C@@H]3O[C@H]1C[C@H](N)[C@H](O)[C@H](C)O1
IV: CCCc1nn(C)c2c(=O)[nH]c(-c3cc(Cc4ccc(C(=O)Nc5ccccc5N)cc4)ccc3OCC)nc12
V: C[C@H]1CN(Cc2ccc(/C=C/C(=O)NO)cc2)C[C@@H]1c1nc2c(cnn2C2CCOCC2)c(=O)[nH]1
Put these in order: smallest IC50 first, largest last. Ranked list of labels, please, in the requested order.
II, III, V, IV, I

====

Target: Protein-glutamine gamma-glutamyltransferase (Homo sapiens)
Sequence (P21980 whole entry): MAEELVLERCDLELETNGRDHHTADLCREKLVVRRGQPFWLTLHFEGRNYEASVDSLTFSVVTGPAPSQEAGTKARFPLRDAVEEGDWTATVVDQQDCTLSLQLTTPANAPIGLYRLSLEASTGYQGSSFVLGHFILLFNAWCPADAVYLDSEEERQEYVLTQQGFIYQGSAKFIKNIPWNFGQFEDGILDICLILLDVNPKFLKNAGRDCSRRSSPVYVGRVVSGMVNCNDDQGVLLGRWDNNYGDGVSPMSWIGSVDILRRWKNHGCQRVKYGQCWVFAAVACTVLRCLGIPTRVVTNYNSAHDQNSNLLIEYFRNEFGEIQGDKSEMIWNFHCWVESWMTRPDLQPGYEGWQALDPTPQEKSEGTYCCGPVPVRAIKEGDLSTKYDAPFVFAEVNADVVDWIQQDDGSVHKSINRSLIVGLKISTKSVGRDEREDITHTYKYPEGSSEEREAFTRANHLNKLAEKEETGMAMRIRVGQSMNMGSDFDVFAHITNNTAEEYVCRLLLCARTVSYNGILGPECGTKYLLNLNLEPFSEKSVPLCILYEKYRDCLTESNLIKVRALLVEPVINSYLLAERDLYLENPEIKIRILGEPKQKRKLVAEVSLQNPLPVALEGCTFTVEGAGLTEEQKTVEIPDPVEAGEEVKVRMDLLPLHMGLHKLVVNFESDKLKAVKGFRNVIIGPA
Assay: Inhibition of recombinant human TG2 using N-Cbz-Glu(gamma-p-nitrophenylester) as substrate measured for 10 mins by absorbance based microplate reader analysis
Measured Property: IC50 (µM)
State just the number; it will be interpreted in µM.

Name the recorded IC50 of the item O=C(CCCCNC(=S)Nc1ccc(/C=C/C(=O)c2cccnc2)cc1)NO in your answer.
13.3

====

Tested on: MCF7
Assay: Cytotoxicity against human MCF7 cells assessed as cell growth inhibition by trypan blue dye based light microscopy
Format: functional
Measured Property: IC50 (µM)
State just the number; it will be interpreted in µM.

Name the recorded IC50 of the item O=C(CCn1cc(CCn2nc3c(Br)c(Br)c(Br)c(Br)c3n2)nn1)NO in your answer.
4.26

====

Biological target: Histone deacetylase 3 (Homo sapiens, UniProt O15379)
Sequence (O15379 whole entry): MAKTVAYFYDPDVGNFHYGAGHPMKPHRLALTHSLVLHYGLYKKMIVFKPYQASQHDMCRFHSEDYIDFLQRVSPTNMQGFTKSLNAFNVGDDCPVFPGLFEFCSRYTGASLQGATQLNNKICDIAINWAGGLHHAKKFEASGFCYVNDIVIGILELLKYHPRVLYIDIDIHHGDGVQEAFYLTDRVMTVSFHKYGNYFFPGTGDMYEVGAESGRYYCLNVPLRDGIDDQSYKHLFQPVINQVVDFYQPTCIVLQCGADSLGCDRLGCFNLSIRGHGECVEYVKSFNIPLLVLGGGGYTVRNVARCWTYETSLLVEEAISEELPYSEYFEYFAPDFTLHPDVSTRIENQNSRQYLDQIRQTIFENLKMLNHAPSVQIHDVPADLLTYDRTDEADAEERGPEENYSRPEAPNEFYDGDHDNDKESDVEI
Test: Inhibition of HDAC3 (unknown origin)
Measured Property: IC50 (nM)
State just the number; it will be interpreted in nM.

Provide Histone deacetylase 3 (Homo sapiens, UniProt O15379) IC50 reading for Cn1c(CCCC(=O)O)nc2cc(N(CCCl)CCCl)ccc21 .
10

====

Molecular target: Protein deacetylase HDAC6 (Homo sapiens)
Sequence (Q9UBN7 whole entry): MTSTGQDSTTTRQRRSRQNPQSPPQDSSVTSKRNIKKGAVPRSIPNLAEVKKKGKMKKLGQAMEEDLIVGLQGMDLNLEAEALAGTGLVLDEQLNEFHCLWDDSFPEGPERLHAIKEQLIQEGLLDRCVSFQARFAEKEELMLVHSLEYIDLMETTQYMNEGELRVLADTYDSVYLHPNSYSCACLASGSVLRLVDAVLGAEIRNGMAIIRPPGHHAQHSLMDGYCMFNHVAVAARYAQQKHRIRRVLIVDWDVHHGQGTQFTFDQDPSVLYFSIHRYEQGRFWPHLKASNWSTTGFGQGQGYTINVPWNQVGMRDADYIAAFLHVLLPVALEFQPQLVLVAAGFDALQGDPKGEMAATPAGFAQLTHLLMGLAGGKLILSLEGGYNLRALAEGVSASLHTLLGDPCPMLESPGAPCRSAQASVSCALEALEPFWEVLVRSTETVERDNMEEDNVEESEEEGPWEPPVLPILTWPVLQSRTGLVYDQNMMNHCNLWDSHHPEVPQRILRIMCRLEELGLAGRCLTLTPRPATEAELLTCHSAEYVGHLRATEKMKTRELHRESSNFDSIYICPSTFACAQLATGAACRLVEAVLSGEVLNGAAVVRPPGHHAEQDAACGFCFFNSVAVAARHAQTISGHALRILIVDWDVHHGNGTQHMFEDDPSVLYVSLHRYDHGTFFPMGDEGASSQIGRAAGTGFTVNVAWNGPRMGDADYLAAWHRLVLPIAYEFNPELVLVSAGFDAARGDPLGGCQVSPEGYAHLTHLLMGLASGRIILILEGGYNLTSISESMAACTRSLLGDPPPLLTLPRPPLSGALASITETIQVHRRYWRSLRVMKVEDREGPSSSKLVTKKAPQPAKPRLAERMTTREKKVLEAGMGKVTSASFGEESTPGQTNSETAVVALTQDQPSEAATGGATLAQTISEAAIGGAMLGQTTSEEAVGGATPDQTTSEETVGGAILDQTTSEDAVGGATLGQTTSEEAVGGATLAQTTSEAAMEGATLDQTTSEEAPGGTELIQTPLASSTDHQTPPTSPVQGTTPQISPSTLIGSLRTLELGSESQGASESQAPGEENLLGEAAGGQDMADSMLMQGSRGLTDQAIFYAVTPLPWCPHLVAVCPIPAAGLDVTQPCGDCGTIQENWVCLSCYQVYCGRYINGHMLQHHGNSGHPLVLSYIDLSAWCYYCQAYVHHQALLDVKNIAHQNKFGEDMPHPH
Test: Inhibition of HDAC6 (unknown origin)
Measured Property: IC50 (nM)

1: C[C@H]1CN(Cc2ccc(/C=C/C(=O)NO)cc2)C[C@@H]1c1nc2c(cnn2C2CCOCC2)c(=O)[nH]1
2: O=C(CCCCc1cn(-c2ccc(C(=O)c3c(-c4ccc(O)cc4)sc4cc(O)ccc34)cc2)nn1)NO
I need your help: which of the pair 1 , 2 has higher IC50? Return value: the label identifying the chosen record.
2
(2: 1300 nM, 1: 508 nM)

I: O=C(CCCCNC(=S)Nc1ccc(/C=C/C(=O)c2cccnc2)cc1)NO
II: O=C(NO)c1ccc(/C=N/NC(=O)c2cc(N3CCOCC3)nc(-c3cccc4[nH]ncc34)n2)cc1
III: COc1cccc2c1C(=O)c1c(O)c3c(c(O)c1C2=O)C[C@@](O)(C(C)=O)C[C@@H]3O[C@H]1C[C@H](N)[C@H](O)[C@H](C)O1
IV: O=C(CCCCCCN1CC(c2ccc3ncnc(Nc4ccc(Br)cc4F)c3c2)N=N1)NO (stereo unspecified)
Please give the order of these compounds when sorted by IC50, largest value leading. Ranked list of labels, please, in the requested order.
I, II, III, IV
(I: 4100 nM, II: 34.6 nM, III: 20 nM, IV: 4.3 nM)

a: O=C(NO)c1ccc(/C=N/NC(=O)c2cc(N3CCOCC3)nc(-c3cccc(O)c3)n2)cc1
b: C[C@H]1CN(Cc2ccc(C(=O)NO)cc2)C[C@@H]1c1nc2c(cnn2C2CCCC2)c(=O)[nH]1
I need your help: which of the pair a , b has higher IC50? Return value: the label identifying the chosen record.
b
(b: 40 nM, a: 15.3 nM)

====

System: PC-3
Test: Inhibition of colony formation in human PC-3 cells incubated for 10 days by crystal violet method
Type: functional, cell-based
Conditions: PC-3, 240 h
Measured Property: IC50 (nM)
State just the number; it will be interpreted in nM.

Name the recorded IC50 of the item O=C(CCCCCNC(=O)c1cccc2cc3ccccc3nc12)NO in your answer.
310

====

Assay: Antiproliferative activity against human WM983B cells assessed as cell growth inhibition
Type: functional, cell-based
Measured Property: IC50 (nM)
State just the number; it will be interpreted in nM.

Name the recorded IC50 of the item Nc1ccccc1NC(=O)c1ccc(CCCC(=O)Nc2ccc(C3CC3N)cc2)cc1 (stereo unspecified) in your answer.
200

====

Biological target: Histone deacetylase 1 (Homo sapiens)
Assay: Inhibition of recombinant human HDAC1 using Boc-Lys (Ac)-AMC as substrate incubated for 60 mins by fluorescence based assay
Measured Property: pIC50
Scale for pIC50: -log10 of concentration given in mol/L; no unit attached.

Name the recorded pIC50 of the item CC(C)=CCC/C(C)=C/CC/C(C)=C/CSc1ccccc1C(=O)NCCCCC(=O)NO in your answer.
7.24

====

Test system: SK-BR-3
Experiment: Cytotoxicity against human SK-BR-3 cells assessed as cell growth inhibition
Format: functional, cell-based
Measured Property: pIC50
Scale for pIC50: -log10 of concentration given in mol/L; no unit attached.

Name the recorded pIC50 of the item O=C(CCCCCCN1CC(c2ccc3ncnc(Nc4ccc(Br)cc4F)c3c2)N=N1)NO (stereo unspecified) in your answer.
4.96

====

Target: UniProt Q92769
Sequence (Q92769 whole entry): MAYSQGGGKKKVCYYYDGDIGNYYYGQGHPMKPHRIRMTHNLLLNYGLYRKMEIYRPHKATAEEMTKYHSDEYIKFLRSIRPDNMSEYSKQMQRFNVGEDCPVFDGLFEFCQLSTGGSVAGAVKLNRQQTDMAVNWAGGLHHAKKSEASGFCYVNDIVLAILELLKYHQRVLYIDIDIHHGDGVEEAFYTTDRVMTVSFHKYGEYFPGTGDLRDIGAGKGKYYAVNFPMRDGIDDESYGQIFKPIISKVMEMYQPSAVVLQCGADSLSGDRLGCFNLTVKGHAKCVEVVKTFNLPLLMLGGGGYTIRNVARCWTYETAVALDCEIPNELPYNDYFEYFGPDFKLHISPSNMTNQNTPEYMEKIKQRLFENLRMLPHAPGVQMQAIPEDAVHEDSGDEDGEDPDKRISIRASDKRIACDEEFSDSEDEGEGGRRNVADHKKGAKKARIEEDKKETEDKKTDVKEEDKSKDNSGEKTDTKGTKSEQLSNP
Test: Inhibition of HDAC2 (unknown origin)
Measured Property: IC50 (µM)

In the examples that follow, each entry is paired with its recorded IC50.
Cn1c(CCCC(=O)O)nc2cc(N(CCCl)CCCl)ccc21 [BENDAMUSTINE]    0.01
C[C@H]1CN(Cc2ccc(/C=C/C(=O)NO)cc2)C[C@@H]1c1nc2c(cnn2C2CCOCC2)c(=O)[nH]1    1.25

P: C[C@@H](c1nc2c(cnn2C2CCCC2)c(=O)[nH]1)N1CC(Cc2ccc(C(=O)Nc3ccccc3N)cc2)C1
Q: C[C@H]1CN(Cc2ccc(C(=O)NO)cc2)C[C@@H]1c1nc2c(cnn2C2CCCC2)c(=O)[nH]1
I need your help: which of the pair P , Q has higher IC50? Return value: the label identifying the chosen record.
Q
